Molecular target: Wee-1 kinase (Homo sapiens)
Construct: purchased Invitrogen PV3817
Sequence (P30291 whole entry): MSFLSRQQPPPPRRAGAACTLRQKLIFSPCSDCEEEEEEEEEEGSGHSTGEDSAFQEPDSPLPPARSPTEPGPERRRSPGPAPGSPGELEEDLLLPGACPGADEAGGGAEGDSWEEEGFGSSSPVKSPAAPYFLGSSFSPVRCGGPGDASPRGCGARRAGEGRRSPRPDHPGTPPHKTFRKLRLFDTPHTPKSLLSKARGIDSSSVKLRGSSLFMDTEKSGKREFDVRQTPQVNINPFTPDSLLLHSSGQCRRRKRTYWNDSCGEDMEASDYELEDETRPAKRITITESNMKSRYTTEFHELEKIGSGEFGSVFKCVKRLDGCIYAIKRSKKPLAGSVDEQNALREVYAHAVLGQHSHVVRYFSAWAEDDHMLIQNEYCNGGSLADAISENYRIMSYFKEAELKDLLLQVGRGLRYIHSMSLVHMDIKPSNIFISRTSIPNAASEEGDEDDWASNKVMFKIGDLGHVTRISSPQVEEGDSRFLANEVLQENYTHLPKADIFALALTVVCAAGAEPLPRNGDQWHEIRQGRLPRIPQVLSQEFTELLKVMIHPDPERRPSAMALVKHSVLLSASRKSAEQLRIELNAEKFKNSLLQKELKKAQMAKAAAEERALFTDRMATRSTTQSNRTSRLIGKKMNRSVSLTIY
Experiment: Measurement of Wee-1 kinase activity (ADP-Glo luminescent kit)
Type: biochemical
EXPERIMENTAL_READOUT: IC50

Consider the worked cases shown below.
Q) Which IC50 value is on record for COCc1cc(Nc2ncc3c(n2)N(C)CN(c2c(Cl)cccc2Cl)C3=O)ccc1N1CCN[C@H](C)C1 [Example 59] ?
A) 10 to 100 nM

Q) Ok, now C[C@H]1CN(c2ccc(Nc3ncc4c(n3)N(C)CN(c3c(Cl)cccc3Cl)C4=O)cc2)CCN1 [Example 17]
A) 10 to 100 nM

Q) Ok, now CN1c2nc(Nc3ccc4c(c3)CNCC4)ncc2C(=O)N(c2c(Cl)cccc2Cl)C1c1ccccc1 (racemic) [Example 23]
A) ≥ 100 nM

Next:
Q) Which IC50 value is on record for Cc1cc(Nc2ncc3c(n2)N(C)CN(c2c(Cl)cccc2Cl)C3=O)ccc1N1C[C@H]2C[C@@H]1CN2C [Example 121] ?
A) 10 to 100 nM

Q) Ok, now CN1CCC(c2ccc(Nc3ncc4c(n3)N(C)CN(c3c(Cl)cccc3Cl)C4=O)cc2CO)CC1 [Example 165]
A) ≤ 10 nM
